Kd: recorded values
biological target: C3b (UniProt P01024); assay: ITC, binder titrated into target
quantity measured: Kd (nM)

binder	unit name	numeric result
polypeptide comprising the amino acid sequence of SEQ ID NO: 33 (designed binder) MVKVKFAATGEEKEVETSKIANVYRVGKDVLFSYDDQGKIGWGYVSEKDAPKELLDLLARAEREK	nM	1.3
polypeptide having the amino acid sequence of SEQ ID NO: 27 (designed binder) MVKVKFEATGEEKEVDTSKIYQVYRSGKEVLFTYDDNGKTGWGYVSEKDAPKELLDMLARAEREK	nM	2.6
polypeptide comprising the amino acid sequence of SEQ ID NO: 34 (designed binder) MVKVKFDATGEEKEVETSKISAVYRTGKDVLFSYDDQGKIGWGYVSEKDAPKELLDLLARAEREK	nM	0.7
